Biological target: human 5-hydroxytryptamine-2C (h5-HT2C) receptor (Homo sapiens, UniProt P28335)
Construct: expressed in transfected cells; host or cells: CHO (Chinese Hamster Ovary) cells; membranes
Test: [125I]DOI binding affinity at h5-HT2C receptor, CHO cell membranes
Settings: 5-HT2C Affinity Ki (nM), [125I]DOI displacement, CHO membranes expressing h5-HT2C
Observation type: Ki (nM)

| Molecule | Observation type | Experimental value |
| --- | --- | --- |
| C[C@@H](N)[C@H]1Cc2ccc3c(c2O1)CCC3 (single isomer, unassigned) | Ki | 13 |

----------
Target: human 5-hydroxytryptamine-2C (h5-HT2C) receptor (Homo sapiens)
Sequence (P28335 33-458): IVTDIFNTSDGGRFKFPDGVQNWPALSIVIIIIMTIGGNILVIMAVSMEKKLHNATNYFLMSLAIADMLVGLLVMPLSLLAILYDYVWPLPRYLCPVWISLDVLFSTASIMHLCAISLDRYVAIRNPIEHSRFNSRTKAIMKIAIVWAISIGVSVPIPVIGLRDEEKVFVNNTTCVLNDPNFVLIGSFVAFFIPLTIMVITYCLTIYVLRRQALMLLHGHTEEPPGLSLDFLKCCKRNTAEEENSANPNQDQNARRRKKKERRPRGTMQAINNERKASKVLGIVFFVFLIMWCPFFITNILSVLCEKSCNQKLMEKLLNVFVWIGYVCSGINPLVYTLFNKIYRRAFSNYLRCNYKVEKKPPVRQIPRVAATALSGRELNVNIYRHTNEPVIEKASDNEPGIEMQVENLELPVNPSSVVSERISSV
pKd: −log10 of the molar value.

| Compound | pKd |
| --- | --- |
| COc1cc(CC(C)N)c(OC)cc1I (stereo not shown) [[^125I] DOI, reference compound] | 9.40 |

----------
Where a name gives a salt, the structure may show the parent alone.
Reported melting point by item:

| Compound | melting point |
| --- | --- |
| COc1cc2c(c3c1C1CCC3C1)OC(CN)C2 (single isomer, unassigned) (as salt: hydrochloride) [Example 16] | > 180 °C (dec.) |
| NCC1Cc2c(Cl)cc3c(c2O1)CCC3 (single isomer, unassigned; (-)) (as salt: hydrochloride) [Example 26] | 265 to 268 °C |
| Cc1cc2c(c3c1CCC3)OC(CN)C2 (racemic) (as salt: hydrochloride) [Example 7] | > 200 °C (dec.) |
| NCC1Cc2ccc3c(c2O1)CCCC3 (racemic) (as salt: hydrochloride) | > 220 °C (dec.) |
| NCC1Cc2cc3c(cc2O1)CCCC3 (racemic) (as salt: hydrochloride) | > 225 °C |
| NCC1Cc2c(ccc3c2CCCC3)O1 (racemic) (as salt: hydrochloride) | > 225 °C |
| COc1cc2c(c3c1C1CCC3C1)OC(CN)C2 (single isomer, unassigned) (as salt: hydrochloride) [Example 17] | > 150 °C (dec.) |
| NCC1Cc2cc(Cl)c3c(c2O1)CCC3 (racemic) (as salt: hydrochloride) [Example 29] | 270 °C (dec.) |

----------
Structures can show the parent of a compound that is named as a salt.
Measured melting point by item
Observation type: melting point

| Compound | Experimental value |
| --- | --- |
| Cc1cc2c(c3c1CCC3)OC(CN)C2 (single isomer, unassigned; (+)) (as salt: hydrochloride) [Example 8] | > 220 °C |
| CNCC1Cc2cc(Cl)c3ccccc3c2O1 (racemic) (as salt: hydrochloride) | 224 to 226 °C |
| COc1cc2c(c3c1C1CCC3CC1)OC(CN)C2 (racemic) (as salt: hydrochloride) [Example 19] | > 210 °C |
| CNCC1Cc2c(Cl)cc3c(c2O1)CCC3 (racemic) | 58 to 60 °C |

From: patent US7728155B2
